Test system: BT-549 breast
Measurement Description: NCI tumour cell line growth inhibition, 48 h
Metric: TGI

| Compound | Value Observed |
| --- | --- |
| O=C(/C=C/c1ccccc1)N1CCCCC1 | > 100 µM |
| O=c1[nH]c(-n2[nH]c3c(c2=O)CCCC3)nc(O)c1-c1ccccc1 | > 100 µM |
| COc1cc(N(Cc2ccc3nc(OC)c(OC)nc3c2)Cc2ccc3nc(OC)c(OC)nc3c2)cc(OC)c1OC | > 50 µM |
| COC(=O)Nc1nc2ccc(NC(=O)c3cccs3)cc2[nH]1 | > 100 µM |
| C#CCCCOc1ncccn1 | > 100 µM |
| C=C(CN1CCN(c2cccc(C(F)(F)F)n2)CC1)c1ccc(C(=S)Nc2ccccc2N)cc1 | > 100 µM |
| COc1cnc2c(c1)C(=O)c1c-2n(CCCNC(C)C)c(=O)c2cc(F)ccc12 | 4.09 µM |
| C=CCNS(=O)(=O)c1ncnc2nc[nH]c12 | > 100 µM |
| Cc1ccc(-c2nc(-c3cnccn3)n(C3OC(CO)C(O)C(O)C3O)n2)cc1 (stereo not drawn) | > 100 µM |
| COC(=O)/C=C\C(C#N)(C#N)N=Cc1ccc(Br)s1 | 16.8 µM |
| Cc1ncsc1-c1ccc(CNC(=O)[C@@H]2C[C@@H](O)CN2C(=O)[C@@H](NC(=O)C2(C#N)CC2)C(C)(C)C)cc1 | > 100 µM |
| COC(=O)/C=C/c1cn(C(C)=O)c2ccc(Br)cc12 | 83.6 µM |
| SC1CCCN(Cc2ccccc2)C1 (stereo not drawn) | > 100 µM |
| C=CN(C)S(C)(=O)=O | > 100 µM |
| CSc1nc(SC)c2ncn(C3CC(Oc4ccc(C)cc4)C(COc4ccc(C)cc4)O3)c2n1 (stereo not drawn) | > 100 µM |
| COC(=O)/C=C(\S/C(=N\n1cc(C(=O)OC)c(C(=O)OC)c1-c1ccc(C)cc1)c1ccc(C)cc1)C(=O)OC | 21.3 µM |
| Br/C(=N\Nc1nn[nH]n1)c1ccncc1 | > 100 µM |
| CN1CC[C@]2(c3cccc(O)c3)CC(=O)/C(=C/c3ccc(Cl)c(Cl)c3)[C@@H]1C2 | 3.14 µM |

====

Test system: SN12C renal
Measurement Description: NCI tumour cell line growth inhibition, 48 h
Metric: TGI

| Compound | Measured Target | Value Observed |
| --- | --- | --- |
| CC1=C([Te]c2ccc(O)cc2)C(=O)c2ccccc2C1=O | SN12C renal | 9.33 µM |
| Clc1cc2n[se]nc2cc1Cl | SN12C renal | > 100 µM |
| Nc1ncnc2c1ncn2[C@H]1CC[C@@H](NO)C1 | SN12C renal | > 100 µM |
| CC[C@]12C=CCN3CC[C@@]4(c5cc(Br)c(OC)cc5N(C)[C@H]4[C@@](O)(C(=O)N[C@@H](Cc4ccc(O)cc4)C(=O)OC)[C@@H]1O)[C@@H]32 | SN12C renal | 37.9 µM |
| CN(C)CCCNC(=O)c1cncnc1Nc1ccc(OCc2cccc(F)c2)c(Cl)c1 | SN12C renal | 3.14 µM |
| CC(C)SC(NC(=O)C1C(C)(C)CCC1(C)C)C(=O)O (stereo not drawn) | SN12C renal | > 100 µM |
| O=S(O)CCCSSc1ccccc1 | SN12C renal | > 100 µM |
| Cc1ccc(C)c2c1CC(Cc1ccccc1C(=O)O)C2=O (stereo not drawn) | SN12C renal | > 100 µM |
| C=C1C(=O)O[C@@H]2C1C[C@@H](O)C(=C)CC/C=C(\C)CCC[C@H](C)[C@H]2OC(C)=O (stereo partly drawn) | SN12C renal | 15.3 µM |
| CN1CC[C@]2(c3cccc(O)c3)CC(=O)/C(=C/c3ccc(Cl)c(Cl)c3)[C@@H]1C2 | SN12C renal | 2.29 µM |
| CC(C)(C)OC(=O)NC(CO)c1cccc(OCc2ccccc2)c1 (stereo not drawn) | SN12C renal | > 100 µM |
| CC(=O)[C@@]1(O)[C@H](C)C[C@H]2[C@@H]3C=C(C)C4=Cc5c(cnn5-c5ccccc5)C[C@]4(C)[C@H]3[C@@H](O)C[C@@]21C | SN12C renal | 12.4 µM |
| Nc1nc(Nc2ccccc2)sc1C(=O)c1cccs1 | SN12C renal | 38.3 µM |
| O=C1c2ccccc2C(=O)N1C/C=C/CO | SN12C renal | > 100 µM |
| O=C(Nc1nc2ccc(F)cc2s1)c1cccnc1Nc1ccc(Cl)cc1 | SN12C renal | > 100 µM |
| Cc1cc(-c2nc3ccc(F)cc3s2)ccc1N | SN12C renal | > 100 µM |
| CCC[CH2][Sn]1([CH2]CCC)[O]C(=O)c2ccc(C)cc2[O]1 | SN12C renal | 1.77 µM |
| Cc1ccc(C(=O)OCC(C)C)cc1N=NN(C)C | SN12C renal | > 100 µM |
| O=C(Nc1ccc(Cl)c(Cl)c1)N1N=C2c3ccccc3CCC2C1c1ccc(Cl)cc1 (stereo not drawn) | SN12C renal | > 100 µM |
| NC(N)=NS(=O)(=O)c1ccc(Nc2c3ccccc3nc3c(C(=O)Nc4ccc(S(N)(=O)=O)cc4)ccc(Cl)c23)cc1 | SN12C renal | > 100 µM |
| CN(CC(=O)O)c1ncc2c(n1)-c1ccccc1OC2 | SN12C renal | > 100 µM |
| O[C@@H]1C[C@H]2N3CC[C@@]2(c2cc4c(cc2C3)OCO4)[C@H]2O[C@@H]12 | SN12C renal | > 100 µM |
| CCOC(=O)/C(=C(/C)NCC(C)C)c1cc(O)c(O)c2c(C)cc(=O)[nH]c12 | SN12C renal | > 100 µM |
| C[C@H](CCCNCCCNCCCN)[C@H]1CC[C@H]2[C@@H]3[C@H](OCCCN)C[C@H]4C[C@H](OCCCN)CC[C@]4(C)[C@H]3C[C@H](OCCCN)[C@]12C | SN12C renal | 24.2 µM |
| COc1cc(N(Cc2ccc3nc(OC)c(OC)nc3c2)Cc2ccc3nc(OC)c(OC)nc3c2)cc(OC)c1OC | SN12C renal | > 50 µM |
| COC(=O)/C=C(\S/C(=N\n1cc(C(=O)OC)c(C(=O)OC)c1-c1ccc(C)cc1)c1ccc(C)cc1)C(=O)OC | SN12C renal | 11.8 µM |
| CCCCN(CCCC)CCCn1c(=O)c2c3ccccc3n(C)c2n2nnc(-c3ccccc3)c12 | SN12C renal | 94.8 µM |
| CCOC(=O)c1ccc(Nc2nc3ccccc3nc2C(=O)OCC)cc1 | SN12C renal | > 100 µM |

====

Tested on: ACHN renal
Measurement Description: NCI tumour cell line growth inhibition, 48 h
TGI values by entry
Metric: TGI

| Molecule | Value Observed |
| --- | --- |
| CC1OC(OC2C(CO)OC(O[C@H]3CC[C@@]4(C)C(=CC[C@H]5[C@@H]6C[C@@H]7O[C@]8(CC[C@@H](C)CN8)[C@@H](C)[C@@H]7[C@@]6(C)CC[C@@H]54)C3)C(O)C2O)C(O)C(O)C1O (some centres not stated) | > 100 µM |
| COc1ccccc1/C=C1\CCC(CCN2CCOCC2)C1=O (configuration not stated) | > 100 µM |
| O=S(=O)(Nc1cc(Cl)ccc1Cl)c1ccc(-c2cnc(C3CC3)o2)cc1 | 76.6 µM |
| Cc1ccc(C)c2c1CC(Cc1ccccc1C(=O)O)C2=O (configuration not stated) | > 100 µM |
| Cc1nn(C)cc1P(=S)(c1ccccc1)c1ccccc1 | > 100 µM |
| CN(C)/C=N/NC(=O)/C(C#N)=C/N(C)C | > 100 µM |
| CC(=O)O[C@H]1CCC2[C@@H]3CCC4Cc5nc6c(nc5C[C@]4(C)C3CC[C@@]21C)CC1CC[C@@H]2C(CC[C@@]3(C)C2CC[C@@H]3C(C)CCCC(C)C)[C@@]1(C)C6 (some centres not stated) | > 100 µM |
| C/C(=C\COc1c2c(cc3c1CCO3)OC1(C=C2)OC(CC/C(C)=C/COc2c3ccoc3cc3oc(=O)ccc23)C(C)(C)O1)CCC(O)C(C)(C)O (configuration not stated) | > 100 µM |
| NC1=NCCN1CC(=O)O | > 10000 µM |
| COc1cnc2c(c1)C(=O)c1c-2n(CCCNC(C)C)c(=O)c2cc(F)ccc12 | 0.229 µM |
| CC(=O)C1(N=Nc2ccc(S(N)(=O)=O)cc2)CCOC1=O (configuration not stated) | > 100 µM |
| COC1O[C@H]2[C@H]3[C@@H]1[C@@H](OS(=O)(=O)c1ccc(C)cc1)C(=O)N3C[C@H]2O (some centres not stated) | > 100 µM |
| N#CS.N=C=S.N=C=S.[Cu+2].[NH2-].[NH2-].[NH2-].[NH2-].c1ccc2ncccc2c1 | > 100 µM |
| Br/C(=N\Nc1nn[nH]n1)c1ccncc1 | > 100 µM |
| O=C(NCc1ccncc1)C12CC3CC(C1)CC(c1ccc(Cl)cc1)(C3)C2 | 25 µM |
| CC(C)(C)OC(=O)C1CC[C@@H](CC(=O)Oc2ccc([N+](=O)[O-])cc2)N1 (some centres not stated) | > 100 µM |
| CC1=C[P+](Cc2ccccc2)(c2ccccc2)CC1 (configuration not stated) | > 100 µM |
